Known GI50 of a selection of molecules
System: SF-539 CNS
Experiment: NCI tumour cell line growth inhibition, 48 h
Parameter Measured: GI50

1) Clc1ccc2c(c1)-c1ccccc1C1=NCCN12
3000 nM
2) CN(C)c1ccc(O)c2c1C[C@H]1C[C@H]3[C@H](N(C)C)C(=O)C(C(N)=O)=C(O)[C@@]3(O)C(=O)C1=C2O
3880 nM
3) CN1CCn2c(c(Sc3ccc(C(=O)NO)cc3)c3ccccc32)C1=O
1560 nM
4) COc1cccc2c(=O)c3c(sc12)c(NCCN(C)C)nc1ccccc13
1610 nM
5) O=C(/C=C/c1ccc(C(F)(F)F)cc1)c1ccc(Nc2nc(NCCO)nc(N3CCOCC3)n2)cc1
1640 nM
6) C[CH2][Sn]([CH2]C)([O]C(=O)c1cccc(F)c1)[O][Sn]([CH2]C)([CH2]C)[O]C(=O)c1cccc(F)c1
17000 nM
7) C=C1CC[C@@H]2[C@](C)(COC(C)=O)[C@H](OC(C)=O)CC[C@@]2(C)[C@@H]1C/C=C1/C(=O)OC[C@H]1OC(C)=O
1700 nM
8) OC(CNc1ccnc2cc(Cl)ccc12)CNC1CCCCC1 (configuration not stated)
1760 nM
9) NCCCCN(Cc1nc2ccccc2[nH]1)[C@H]1CCCc2cccnc21
13300 nM
10) CC1/C(=N/Nc2ccc([N+](=O)[O-])cc2)CC2C3(C)CCC2(C(C)C(=O)O)C(=O)C13 (configuration not stated)
5440 nM
11) N#Cc1nc2cc(F)c(F)cc2nc1-c1ccc(Cl)cc1
> 60600 nM
12) O=Cc1ccc(O)c2ncccc12
3330 nM
